assay: soluble on expression in E. coli; label from the status in PepcDB or PDB records

{"columns": ["RESIDUE CODES", "soluble on expression in E. coli"],
 "data": [
  ["MLILGIDTSTKICTCSIFDSENGVIAETSLSVKKNHSNIVMPIIDNLFKISDLTINDIDKIAVAIGPGSFTGVRIALGIAKGLAMALNKPLIAINELDILEAIASGNENEIIPLIDARKERVYYKYQNKYVDDYLINLTSNFDKNKKYIFVGDGAINYKNILKDNLGENAIILPMYNSFPRASILCELALNKEEANIYTLEPEYISKSRAEKHFLEHHHHHH", "soluble"],
  ["MSQDIFTRDNLLRVENPNILVGESPVKYRVEEIYLDGKLKKAEDVDEEEKSYGIFMHSLVLSNYAEVMNVSHKKLDVIRDEKEKAIFYFTEEKGFDKSLIESIVPKVEAFSLNEDKLKVSTHIINEKMRIISRGTPDELLKRCSYILLDSKIVKKTRKIYREINRVLNDMINRCCTVYALAIKDVSKTDIITNVDAYIDGMTLVALIGMCRA", "soluble"]
]}

----------
assay: soluble on expression in E. coli; label from the status in PepcDB or PDB records
OBSERVED PROPERTY: soluble on expression in E. coli

{"columns": ["RESIDUE CODES", "OBSERVED PROPERTY", "REPORTED RESULT"],
 "data": [
  ["SSVASALLLQEAQAGFCRVDGTIDNNHTGFTGSGFANTNNAQGAAVVWAIDATSSGRRTLTIRYANGGTANRNGSLVINGGSNGNYTVSLPTTGAWTTWQTATIDVDLVQGNNIVQLSATTAEGLPNIDSLSVVGGTVRAGNCG", "soluble on expression in E. coli", "soluble"],
  ["MSLKKAIAYMRFSSPGQMSGDSLNRQRRLIAEWLKVNSDYYLDTITYEDLGLSAFKGKHAQSGAFSEFLDAIEHGYILPGTTLLVESLDRLSREKVGEAIERLKLILNHGIDVITLCDNTVYNIDSLNEPYSLIKAILIAQRANEESEIKSSRVKLSWKKKRQDALESGTIMTASCPRWLSLDDKRTAFVPDPDRVKTIELIFKLRMERRSLNAIAKYLNDHAVKNFSGKESAWGPSVIEKLLANKALIGICVPSYRARGKGISEIAGYYPRVISDDLFYAVQEIRLAPFGISNSEGHHHHHH", "soluble on expression in E. coli", "soluble"],
  ["MSAYKTVVVGTDGSDSSMRAVDRAAQIAGADAKLIIASAYLPQHEDARAADILKDESYKVTGTAPIYEILHDAKERAHNAGAKNVEERPIVGAPVDALVNLADEEKADLLVVGNVGLSTIAGRLLGSVPANVSRRAKVDVLIVHTT", "soluble on expression in E. coli", "not soluble"],
  ["MLTEQEKDIIKQTVPLLKEKGTEITSIFYPKMFKAHPELLNMFNQTNQKRGMQSSALAQAVMAAAVNIDNLSVIKPVIMPVAYKHCALQVYAEHYPIVGKNLLKAIQDVTGLEENDPVIQAWAKAYGVIADVFIQIEKEIYDQMMWIGFKPFKITNIKQESEDIKSFTVETEEYDFSEFTPGQYITVDVSSDKLPYRAKRHYSIVSGEKNHLTFGVKRDVTTEHEGEVSTILHDEIKEGDMINLAAPVGGFVLENTTEPQLFLGSGIGVTPLVAMYEAASAKGLDTQMVQVAENEQHLPFKDNFNSIASHHDNAKLYTHLKDKQGYIGAEELQVFLANKPEIYICGGTKFLQSMIEALKSLNYDMDRVHYETFIPRLSVAV", "soluble on expression in E. coli", "not soluble"]
]}
